tested on: c-Src; assay: phosphorylation enrichment, bacterial display (enrichment ratio); higher = better substrate or ligand; peptides without Tyr show the background;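 note: 11-residue human phosphosite peptides and single-mutation variants displayed on the E. coli surface, counted by deep sequencing, each peptide's frequency after selection divided by its frequency in the unselected input library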;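 note: frequency after pTyr selection over input frequency; kinase dosed for 20-30% of maximal phosphorylation in three min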
Label Y when phosphorylation enrichment is at or above 1; anything below gets N.

Worked examples follow.
EMTRNYIIFIE [BCO2_Y294_G289E]	N
QRDSSYYWEIE [RAF1_Y340]	Y
SQSPHYFRSGQ [GPATCH8_Y1038_R1043Q]	N

Decide: is the reported value of phosphorylation enrichment for DISEPYEVFRI [IRF8_Y107_K108E_YF] equal to or greater than 1? Y

Decide: is the reported value of phosphorylation enrichment for FAKTQYPDVFA [CRX_Y63_YF] equal to or greater than 1? N

Decide: is the reported value of phosphorylation enrichment for LQTFHYHGHSM [PDHA1_Y289_R288H_YF] equal to or greater than 1? Y

Decide: is the reported value of phosphorylation enrichment for LKALKYKSMKI [ITGA11_Y1098] equal to or greater than 1? N

* * *

tested on: AncSZ; experiment: phosphorylation enrichment, bacterial display (enrichment ratio); higher = better substrate or ligand; peptides without Tyr show the background
experimentalEndpoint: phosphorylation enrichment
Hey, just send me the number, nothing else.

// known answers, use as guide
KYWREYILSLE [GPC3_Y299]	1.03
TQRPYYKGGGG [TYROBP_Y112]	0.49
PYTDPYYDYEI [ZC3H18_Y371_A368T]	3.74

Form: Entry = VIKDKYPQARF [APTX_Y209_K211Q_YF] | System = AncSZ | phosphorylation enrichment = ____ 0.453

Form: Entry = CTTIHYNYMHN [TP53_Y234_C238H] | System = AncSZ | phosphorylation enrichment = ____ 0.692

Form: Entry = NDKLRYEVSSP [CDH13_Y66] | System = AncSZ | phosphorylation enrichment = ____ 1.14

Form: Entry = KPYRVYCDMNT [FGB_Y269] | System = AncSZ | phosphorylation enrichment = ____ 1.04

Form: Entry = AGADGYDYLAP [FOXL2_Y186_G187D] | System = AncSZ | phosphorylation enrichment = ____ 3.5

Form: Entry = FSSLGYPLPEG [ZSWIM4_Y87_P89L_YF] | System = AncSZ | phosphorylation enrichment = ____ 0.747

Form: Entry = ICANKYMVKSC [RPL10_Y75] | System = AncSZ | phosphorylation enrichment = ____ 0.719

Form: Entry = KPNMNYDKLSR [FLI1_Y332] | System = AncSZ | phosphorylation enrichment = ____ 0.548

Form: Entry = SGEKPYKCSEC [ZNF543_Y283] | System = AncSZ | phosphorylation enrichment = ____ 0.664

Form: Entry = EPFKVYRIVPE [IRF8_Y110_YF] | System = AncSZ | phosphorylation enrichment = ____ 0.572

Form: Entry = RGFDTYFGFLL [ARSB_Y165_YF] | System = AncSZ | phosphorylation enrichment = ____ 1.68

* * *

# phosphorylation enrichment values compiled below
target: MERTK (UniProt Q12866); assay: phosphorylation enrichment, bacterial display (enrichment ratio); higher = better substrate or ligand; peptides without Tyr show the background
Sequence (Q12866 whole entry, looked up): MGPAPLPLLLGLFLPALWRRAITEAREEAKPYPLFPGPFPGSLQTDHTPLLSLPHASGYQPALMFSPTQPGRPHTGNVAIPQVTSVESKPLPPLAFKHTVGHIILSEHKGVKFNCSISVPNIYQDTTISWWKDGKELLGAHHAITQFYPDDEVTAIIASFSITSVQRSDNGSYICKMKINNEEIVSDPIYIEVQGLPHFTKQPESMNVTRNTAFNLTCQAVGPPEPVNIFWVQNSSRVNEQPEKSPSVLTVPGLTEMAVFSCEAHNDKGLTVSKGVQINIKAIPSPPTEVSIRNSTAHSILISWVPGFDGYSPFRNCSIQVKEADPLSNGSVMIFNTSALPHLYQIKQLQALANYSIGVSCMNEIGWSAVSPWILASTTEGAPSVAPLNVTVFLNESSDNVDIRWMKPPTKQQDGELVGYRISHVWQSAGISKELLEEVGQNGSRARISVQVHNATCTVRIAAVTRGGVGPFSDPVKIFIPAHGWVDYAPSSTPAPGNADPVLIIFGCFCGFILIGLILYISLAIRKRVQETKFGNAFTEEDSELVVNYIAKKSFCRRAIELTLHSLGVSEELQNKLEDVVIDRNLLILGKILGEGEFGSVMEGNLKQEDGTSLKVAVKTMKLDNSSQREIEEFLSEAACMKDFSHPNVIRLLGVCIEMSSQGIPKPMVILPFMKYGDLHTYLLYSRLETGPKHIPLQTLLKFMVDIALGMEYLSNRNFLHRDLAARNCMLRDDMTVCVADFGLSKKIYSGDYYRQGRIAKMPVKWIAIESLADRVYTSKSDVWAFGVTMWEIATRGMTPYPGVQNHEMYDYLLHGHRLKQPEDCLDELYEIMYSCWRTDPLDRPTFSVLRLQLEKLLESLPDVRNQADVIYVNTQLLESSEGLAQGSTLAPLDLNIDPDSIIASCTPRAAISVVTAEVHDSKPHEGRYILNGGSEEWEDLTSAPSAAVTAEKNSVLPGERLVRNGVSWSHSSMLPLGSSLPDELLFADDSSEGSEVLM
Hey, just send me the number, nothing else.

// known answers, use as guide
NGTVTYAIVAG [CDH23_Y1672]	2.6
KVMANYVFKAG [MAML2_Y513_M514V_YF]	0.401
QDIMAYRSREV [BCL6_Y157_G159S]	0.398
GVIRHYVVCST [BTK_Y334]	0.447
IRYPPYTDWNQ [ALDH3B2_Y365_H361R]	0.429

Form: Entry = IYRAAYFGVYD [SLC25A4_Y191] | System = MERTK (UniProt Q12866) | phosphorylation enrichment = ____ 1.26

Form: Entry = GILDVYIFLGP [GAA_Y340] | System = MERTK (UniProt Q12866) | phosphorylation enrichment = ____ 0.701
